Origin of measurements: ChEMBL document CHEMBL1151969

experiment: Inhibition of melanin synthesis in NHEM cells assessed as [14C]thiouracil incorporation after 72 hrs by liquid scintillation counting; type: functional, cell-based, Homo sapiens; details: Homo sapiens, NHEM, 72 h
pIC50: −log10 of the molar value.
quantityMeasured: pIC50

Example cases with answers are listed next.
# compound, quantitativeResult
records = [
    ("COc1ccc2c(c1)OC[C@H]1c3cc(O)c(OC)c(CC=C(C)C)c3O[C@@H]21 [LESPEFLORIN G8]", 5.79),
    ("CC(C)=CCc1cc([C@@H]2CC(=O)c3c(O)c(CC=C(C)C)c(O)c(CC=C(C)C)c3O2)ccc1O [AMORILIN]", 5.92),
    ("COc1ccc([C@@H]2CC(=O)c3cc(CC=C(C)C)c(O)c(CC=C(C)C)c3O2)cc1 [LESPEFLORIN A1]", 5.40),
    ("CC(C)=CCc1cc(-c2oc3c(CC=C(C)C)c(O)c(O)cc3c2C(=O)c2cc3c(c(CC=C(C)C)c2O)O[C@H]2c4ccc(O)c(CC=C(C)C)c4OC[C@@H]32)c(O)cc1O [LESPEFLORIN J1]", 4.40),
    ("COc1cc2c(cc1O)O[C@H]1c3ccc(O)c(CC=C(C)C)c3OC[C@@H]21 [LESPEFLORIN G1]", 5.43),
]

[P] CC(C)=CCc1cc([C@H]2Oc3c(CC=C(C)C)c(O)c(CC=C(C)C)c(O)c3C(=O)[C@@H]2O)ccc1O [LESPEFLORIN B4]
[Q] CC(C)=CCc1cc([C@H]2Oc3cc(O)c(CC=C(C)C)cc3C(=O)[C@@H]2O)ccc1O [LESPEFLORIN B1]
[R] COc1ccc2c(c1)OC[C@H]1c3cc(O)c4c(c3O[C@@H]21)C=CC(C)(C)O4 [LESPEFLORIN G12]
Exam item: Please list these compounds in decreasing order of pIC50. Give your ranking as a list of the labels in the requested order.
Marked response: P, Q, R

[P] CC(C)=CCc1c(O)c(CC=C(C)C)c2c(c1O)C(=O)C[C@@H](c1cc3c(cc1O)OC(C)(C)C=C3)O2 (stereo in doubt; 45) [EUCHRENONE A3]
[Q] CC(C)=CCc1cc2c(c(CC=C(C)C)c1O)O[C@H](c1ccc(O)cc1)CC2=O
[R] COc1c(O)ccc(-c2cc3ccc(O)c(OC)c3o2)c1OC [LESPEFLORIN F1]
Exam item: Arrange the 3 entries by pIC50 so the values rise. Give your ranking as a list of the labels in the requested order.
Marked response: R, Q, P

[P] CC(C)=CCc1c(O)c(C)cc2c1O[C@H]1c3ccc(O)c(CC=C(C)C)c3OC[C@@H]21 [LESPEFLORIN G5]
[Q] CC(C)=CCc1cc2c(cc1O)oc(=O)c1c3cc(O)c(O)cc3oc21 [LESPEFLORIN I1]
Exam item: Identify the entry with the smaller pIC50: P or Q . Use the label to indicate which entry you chose.
Marked response: Q
